Experiment: ATG_NFI_CIS: Attagene CIS-FACTORIAL HepG2 Assay for human Nuclear Factor I (NFI) (AID 2282989)
Conditions: HepG2 cis-regulatory reporter, NFI response element transcription; actives raise or lower the signal
Procedure: ATG_CIS is a cell-based, multiplexed-readout assay that uses HepG2, a human liver cell line, with measurements taken at 24 hours after chemical dosing in a 24-well plate.ATG_NFI_CIS is one of 52 assay component(s) measured or calculated from the ATG_CIS assay. […] This assay endpoint, ATG_NFI_CIS, was analyzed with bidirectional fitting relative to DMSO as the negative control and baseline of activity. […]
Active and inactive are the calls of the source. Rule for the calls: active = hit-call score of the fitted dose curve at least 0.9, where 1 is the maximum; inactive = score below 0.9.
Your reply should match one of these outcome classes. active, inactive

The examples below pair each entry with its known result.
compound: CC(C)=CCC/C(C)=C\CO
category: inactive

compound: COc1ccc2sc(C(=O)Nc3nnn[nH]3)c(OC(C)C)c2c1
category: inactive

compound: CC(C)CC(C)(O)C#CC(C)(O)CC(C)C (stereo unspecified)
category: inactive

Request: Entry `CC[C@H]1CC[C@H](NCc2cc3c(cc2OC)[C@H]2C[C@H]2C(=O)N3C)[C@H](c2ccccc2)N1` : call = ?
Result: active

Request: Could you kindly confirm the outcome this assay logged for O=C1OC(=O)C2C3C=CC(C3)C12 (stereo unspecified) ?
Result: inactive

Request: // param item: `CC1=CC(=O)CC(C)(C)C1` ; yields the recorded call
Result: inactive

====

Read-out: Matrix Metallopeptidase 1 (MMP1), MMP1 (gene 4312)
Experiment: BSK_BE3C_MMP1: BioMAP Diversity Plus: BE3C Assay for Matrix Metallopeptidase 1 (MMP1) Biomarker Activity (AID 2283024)
Settings: primary human bronchial epithelial cells; actives raise or lower the signal
Calls of active or inactive are those of the source. Rule for the calls: active = hit-call score of the fitted dose curve at least 0.9, where 1 is the maximum; inactive = score below 0.9.
Classes to choose from: true = active, false = inactive

Request: Which outcome was assigned to `CC(C)c1cccc(C(C)C)c1N1C(=O)c2ccc(O)cc2C1=O` in this test?
Result: false

====

Read-out: Fatty Acid-Binding Protein 1 (FABP1), FABP1 (gene 2168)
Test: LTEA_HepaRG_FABP1: Life Technologies and Expression Analysis (LTEA) Assay for Fatty Acid-Binding Protein 1 (FABP1) using HepaRG (AID 2283494)
Conditions: mRNA level, 48 h; actives raise or lower the signal
Activity calls are given as the source filed them. How the source made its calls: active means hit-call score of the fitted dose curve at least 0.9, where 1 is the maximum; inactive means score below 0.9.
Your answer must be one of the following: 1 (yes) (active), 0 (no) (inactive)

Request: Assay result, entry `COc1ccc(/C=C/S(=O)(=O)NC(=O)c2ccc(C)cc2Cl)cc1` — outcome?
Result: 0 (no)

Request: Assay result, entry `O=C(O)c1cccc(Oc2ccccc2)c1` — outcome?
Result: 1 (yes)

Request: Hey, what did the test say about `COc1cccc(-c2ccc(/C=C\CN3CCCCCC3)cc2Cl)c1` ?
Result: 1 (yes)

Request: Status in this test for `COC(=O)c1c(Cl)c(Cl)c(C(=O)OC)c(Cl)c1Cl` ?
Result: 0 (no)

Request: Outcome logged for `CCCCCCCCO` in this assay:
Result: 0 (no)

Request: Just curious, what result did O=C1OC(=O)C2C3C=CC(C3)C12 (centres undefined) get here?
Result: 0 (no)

Request: Which outcome was assigned to `CC(C)=CCCC(C)=CC=O` in this test?
Result: 0 (no)

Request: Dear colleague, could you share the recorded outcome for `O=C(O)c1cc(N=Nc2ccc(S(=O)(=O)Nc3ccccn3)cc2)ccc1O` when you have a moment?
Result: 0 (no)

Request: For `CNCc1ccc(NC(=O)c2c[nH]c3c2C(=O)CCC3)cc1` , which call appears in the assay record?
Result: 0 (no)

Request: Query: recorded result category for `CC1(C)C(=O)N(Br)C(=O)N1Br` in this test
Result: 0 (no)

Request: # fetch the recorded call for O=c1n(CC2CO2)c(=O)n(CC2CO2)c(=O)n1CC1CO1 (centres undefined) here
Result: 0 (no)

Request: Hey, what did the test say about CC(C)=CCCC(C)CCO (centres undefined) ?
Result: 0 (no)

Request: Outcome? `C1N2CN3CN1CN(C2)C3`
Result: 0 (no)

Request: Please state the recorded outcome for this compound: `Oc1ccc2c(c1)-c1ccccc1C2`
Result: 0 (no)

Where these numbers come from: PubChem BioAssay (EPA / NIEHS)
